Target: human CYP11B2 (Homo sapiens, UniProt P19099)
Construct: expressed in transfected cells; host or cells: V79 Chinese hamster cells
Sequence (P19099 25-503): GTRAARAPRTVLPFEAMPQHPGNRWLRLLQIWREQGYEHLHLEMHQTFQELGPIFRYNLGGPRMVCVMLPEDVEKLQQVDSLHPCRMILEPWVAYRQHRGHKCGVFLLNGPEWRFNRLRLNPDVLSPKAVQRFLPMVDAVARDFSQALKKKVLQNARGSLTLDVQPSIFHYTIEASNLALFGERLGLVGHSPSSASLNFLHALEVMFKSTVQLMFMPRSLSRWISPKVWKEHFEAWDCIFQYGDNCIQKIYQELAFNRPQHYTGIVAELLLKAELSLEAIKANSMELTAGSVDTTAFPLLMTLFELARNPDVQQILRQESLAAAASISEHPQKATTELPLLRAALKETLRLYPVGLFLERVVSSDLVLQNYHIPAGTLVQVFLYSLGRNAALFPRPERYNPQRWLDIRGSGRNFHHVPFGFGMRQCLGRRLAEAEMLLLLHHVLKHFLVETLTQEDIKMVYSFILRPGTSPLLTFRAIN
Test: Inhibitor potency for human CYP11B2 in V79 cells expressing the enzyme (HPLC steroid analysis)
Format: cell-based
Conditions: V79 cells stably (over)expressing human CYP11B2; 1 hour with inhibitor, then 11-deoxycorticosterone 500 nM for three hours; read-out: IC50 11B2
EXPERIMENTAL_READOUT: pIC50
pIC50 is a log-scale quantity: -log10 of the concentration expressed in molar.

- COMPOUND_STRING: "N#Cc1ccc(Cn2cncc2CO)cc1"
  MEASURED_TARGET: "human CYP11B2 (Homo sapiens, UniProt P19099)"
  pIC50: 7.55
- COMPOUND_STRING: "COC(=O)c1cncn1Cc1ccc(C#N)cc1"
  MEASURED_TARGET: "human CYP11B2 (Homo sapiens, UniProt P19099)"
  pIC50: 8.15
- COMPOUND_STRING: "N#Cc1ccc(Cn2cncc2-c2cccc(F)c2)cc1"
  MEASURED_TARGET: "human CYP11B2 (Homo sapiens, UniProt P19099)"
  pIC50: 8.26
- COMPOUND_STRING: "N#Cc1ccc(Cn2cncc2C=O)cc1"
  MEASURED_TARGET: "human CYP11B2 (Homo sapiens, UniProt P19099)"
  pIC50: 7.21
- COMPOUND_STRING: "OCCCc1cncn1Cc1ccc(F)cc1"
  MEASURED_TARGET: "human CYP11B2 (Homo sapiens, UniProt P19099)"
  pIC50: 7.77

Memo: COC(=O)CCc1cncn1Cc1ccc(Br)cc1 , reported pIC50: 8.40

---

biological target: human CYP11B1 (Homo sapiens, UniProt P15538); construct: The full length cDNA for human CYP11B1 was obtained by PCR from human adrenal cDNA; test: Inhibitor potency for human CYP11B1 in V79 cells expressing the enzyme (HPLC steroid analysis); settings: V79 cells (over)expressing human CYP11B1; 1 hour with inhibitor, then 11-deoxycorticosterone 500 nM for another hour; read-out: IC50 11B1
Sequence (P15538 25-503): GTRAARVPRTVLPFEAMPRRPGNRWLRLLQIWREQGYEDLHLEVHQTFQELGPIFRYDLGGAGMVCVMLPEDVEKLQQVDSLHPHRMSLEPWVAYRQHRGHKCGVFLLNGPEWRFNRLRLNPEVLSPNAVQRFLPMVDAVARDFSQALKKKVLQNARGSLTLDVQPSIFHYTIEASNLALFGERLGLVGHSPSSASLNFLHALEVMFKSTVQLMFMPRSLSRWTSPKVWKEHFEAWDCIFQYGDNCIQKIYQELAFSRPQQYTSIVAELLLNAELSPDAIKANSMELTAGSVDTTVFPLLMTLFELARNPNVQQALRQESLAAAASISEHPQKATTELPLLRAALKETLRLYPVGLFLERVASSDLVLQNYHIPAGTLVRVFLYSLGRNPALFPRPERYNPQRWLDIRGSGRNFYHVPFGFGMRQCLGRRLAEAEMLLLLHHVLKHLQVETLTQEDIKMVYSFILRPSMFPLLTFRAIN
Flag rule - IC50 less than 30 nM flags YES; the remaining entries get NO.

As a guide, the following entries are already answered.
- COMPOUND_STRING: "N#Cc1ccc(Cn2cncc2CO)cc1"
  CLASS: "NO"
- COMPOUND_STRING: "N#Cc1ccc(Cn2cncc2-c2ccccc2)cc1"
  CLASS: "YES"
- COMPOUND_STRING: "Cc1ccccc1-c1cncn1Cc1ccc(C#N)cc1"
  CLASS: "YES"
- COMPOUND_STRING: "Cc1cncn1Cc1ccc(C#N)cc1"
  CLASS: "NO"
- COMPOUND_STRING: "COC(=O)CCc1cncn1Cc1ccc(C#N)cc1"
  CLASS: "NO"

# input Confirm or reject: IC50 of O=[N+]([O-])c1ccc(Cn2cncc2-c2ccccc2)cc1 lies strictly below 30 nM
# output YES
